Source of measurements: the supplement of paper PMC7877785

Reported self-splicing fitness (ln) is given for each of the following sequences.
- experimental protocol: self-splicing fitness, log relative to wild type (ln ratio); higher = more splicing; Tetrahymena group I intron in knt gene, E. coli kanamycin selection, DiMSum; sequences stand for … in CUCUCU…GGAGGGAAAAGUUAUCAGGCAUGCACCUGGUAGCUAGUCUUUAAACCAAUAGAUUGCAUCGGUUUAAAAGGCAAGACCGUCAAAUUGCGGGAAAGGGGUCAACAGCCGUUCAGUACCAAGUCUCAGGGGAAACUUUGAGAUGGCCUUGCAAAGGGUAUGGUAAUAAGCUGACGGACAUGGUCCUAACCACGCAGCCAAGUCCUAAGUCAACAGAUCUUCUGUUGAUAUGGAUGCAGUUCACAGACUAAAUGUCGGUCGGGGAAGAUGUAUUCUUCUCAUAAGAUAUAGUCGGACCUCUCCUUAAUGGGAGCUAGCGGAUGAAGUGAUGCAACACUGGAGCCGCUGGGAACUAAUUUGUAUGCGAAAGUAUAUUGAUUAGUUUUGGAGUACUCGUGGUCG;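 further: selection with 25 µg/mL kanamycin versus none on LB agar overnight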
- measurement context: 30 °C

What measured self-splicing fitness (ln) goes with "GCCAAGCAAUAUUACGCCCU" ?
-1.4

Moving on to "CGGAAGCAAUAUUACGCUCG"
-3.42

Moving on to "AGCCAGCAAUAUUACGGUCU"
-3.08

Moving on to "GAUCAGCAAUAUUACGUCAA"
-1.01

Moving on to "CGCUAGCAAUAUUACGCGCU"
-3.85

Moving on to "UAUAAGCAAUAUUACGUGUA"
-1.48

---
What measured self-splicing fitness (ln) goes with "AUUCAGCAAUAUUACGCACC" ?
-0.502

Moving on to "GGGGAGCAAUAUUACGGGUU"
-2.84

Moving on to "GUACAGCAAUAUUACGUUCG"
-1.45

Moving on to "CCCCAGCAAUAUUACGUCAC"
-4.02

Moving on to "UAGUAGCAAUAUUACGUGGG"
-3.26

Moving on to "UUACAGCAAUAUUACGUUCU"
-1.6

Moving on to "GAACAGCAAUAUUACGCACA"
-0.348

Moving on to "AACGAGCAAUAUUACGGGAU"
-4.34

Moving on to "CCCAAGCAAUAUUACGCAAC"
-3.16

Moving on to "CGGUAGCAAUAUUACGACGG"
-0.359

Moving on to "CCGGAGCAAUAUUACGUAUG"
-1.41

Moving on to "GUCAAGCAAUAUUACGGAUA"
-2.47

Moving on to "UCAAAGCAAUAUUACGCCGG"
-0.974

Moving on to "GCUCAGCAAUAUUACGCGAU"
-2.55

Moving on to "CGAUAGCAAUAUUACGCAUA"
-3.25

Moving on to "UAAAAGCAAUAUUACGAUGU"
-2.44

Moving on to "UAAAAGCAAUAUUACGAGGG"
-3.83

Moving on to "UUAGAGCAAUAUUACGUAAU"
-2.77

Moving on to "CAUCAGCAAUAUUACGCCUU"
-1.92

Moving on to "GGUAAGCAAUAUUACGCUGC"
-2.94

Moving on to "GCCCAGCAAUAUUACGCCUC"
-0.831

Moving on to "UACAAGCAAUAUUACGAGUA"
-2.13

----------
- experimental protocol: self-splicing fitness, log relative to wild type (ln ratio); higher = more splicing; Tetrahymena group I intron in knt gene, E. coli kanamycin selection, DiMSum; sequences stand for … in CUCUCU…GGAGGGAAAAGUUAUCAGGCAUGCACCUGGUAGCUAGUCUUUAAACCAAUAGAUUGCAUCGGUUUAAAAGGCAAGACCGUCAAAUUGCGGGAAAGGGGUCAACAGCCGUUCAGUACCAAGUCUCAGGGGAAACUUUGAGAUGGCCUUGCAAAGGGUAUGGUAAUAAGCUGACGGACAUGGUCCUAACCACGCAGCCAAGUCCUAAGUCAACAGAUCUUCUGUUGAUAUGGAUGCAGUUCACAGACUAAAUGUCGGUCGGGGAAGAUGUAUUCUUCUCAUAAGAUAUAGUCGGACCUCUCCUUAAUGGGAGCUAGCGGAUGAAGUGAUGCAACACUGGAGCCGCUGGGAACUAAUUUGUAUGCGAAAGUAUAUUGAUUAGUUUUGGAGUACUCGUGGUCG
- measurement context: 37 °C
Mark F for self-splicing fitness (ln) values under -2, and T for everything at or above.

Form field: self-splicing fitness (ln) at least -2? Entry: "GAGUAGCAAUAUUACGUUUG"
F

Moving on to "GCACAGCAAUAUUACGGGAU"
T

Moving on to "ACCAAGCAAUAUUACGAAUG"
T

Moving on to "CUGCAGCAAUAUUACGAUGG"
T

Moving on to "AUCCAGCAAUAUUACGUGUA"
T

Moving on to "UAACAGCAAUAUUACGGUAU"
F

---
Form field: self-splicing fitness (ln) at least -2? Entry: "CUGGAGCAAUAUUACGUUGU"
F

Moving on to "AGUAAGCAAUAUUACGGAUA"
T

Moving on to "UAUCAGCAAUAUUACGGGGG"
T

----------
- experimental protocol: self-splicing fitness, log relative to wild type (ln ratio); higher = more splicing; Tetrahymena group I intron in knt gene, E. coli kanamycin selection, DiMSum; sequences stand for … in CUCUCU…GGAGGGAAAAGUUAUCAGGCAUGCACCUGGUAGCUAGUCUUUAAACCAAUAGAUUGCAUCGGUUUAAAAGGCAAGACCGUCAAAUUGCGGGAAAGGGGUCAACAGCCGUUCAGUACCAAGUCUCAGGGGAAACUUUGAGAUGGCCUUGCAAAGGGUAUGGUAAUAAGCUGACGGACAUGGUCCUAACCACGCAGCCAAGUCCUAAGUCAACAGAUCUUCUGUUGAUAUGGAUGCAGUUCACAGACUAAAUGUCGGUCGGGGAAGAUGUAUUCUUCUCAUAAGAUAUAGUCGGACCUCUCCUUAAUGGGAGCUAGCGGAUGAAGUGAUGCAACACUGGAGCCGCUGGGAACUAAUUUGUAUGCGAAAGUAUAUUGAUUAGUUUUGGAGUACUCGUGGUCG
- measurement context: 30 °C
# binning rule on self-splicing fitness (ln): bottom range (below -3), center range (-3 to below -2), top range (-2 or more)

Look over these answered cases.
Class (by measured self-splicing fitness (ln)) for "CCCCAGCAAUAUUACGGAAU"
bottom range

Moving on to "CGUCAGCAAUAUUACGAGGU"
bottom range

Moving on to "GUCCAGCAAUAUUACGGUGG"
bottom range

---
Class (by measured self-splicing fitness (ln)) for "GUGCAGCAAUAUUACGUUCG"
top range

Moving on to "UACUAGCAAUAUUACGGAUA"
top range

Moving on to "AAGGAGCAAUAUUACGCUUA"
top range

Moving on to "UAUCAGCAAUAUUACGGCGC"
center range

Moving on to "GCCGAGCAAUAUUACGUGUG"
top range

Moving on to "UCGCAGCAAUAUUACGUCCG"
top range

Moving on to "AAUAAGCAAUAUUACGUCGC"
center range

Moving on to "CGAUAGCAAUAUUACGGGGG"
bottom range

Moving on to "AUGCAGCAAUAUUACGAUAU"
top range

Moving on to "CCGCAGCAAUAUUACGAACC"
top range

Moving on to "AAAAAGCAAUAUUACGGUGC"
bottom range

Moving on to "CAUGAGCAAUAUUACGGGCG"
top range

----------
- experimental protocol: self-splicing fitness, log relative to wild type (ln ratio); higher = more splicing; Tetrahymena group I intron in knt gene, E. coli kanamycin selection, DiMSum; sequences stand for … in CUCUCU…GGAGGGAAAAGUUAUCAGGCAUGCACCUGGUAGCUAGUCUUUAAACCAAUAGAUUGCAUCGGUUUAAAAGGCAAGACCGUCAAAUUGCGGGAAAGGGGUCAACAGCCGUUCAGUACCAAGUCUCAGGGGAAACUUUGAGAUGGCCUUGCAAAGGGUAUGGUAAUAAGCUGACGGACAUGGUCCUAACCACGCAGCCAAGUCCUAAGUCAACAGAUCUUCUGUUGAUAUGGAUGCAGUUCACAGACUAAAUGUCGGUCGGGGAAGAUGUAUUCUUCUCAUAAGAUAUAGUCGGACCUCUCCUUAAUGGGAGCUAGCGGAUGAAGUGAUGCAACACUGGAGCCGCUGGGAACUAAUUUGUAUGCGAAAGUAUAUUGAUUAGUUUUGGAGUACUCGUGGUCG
- measurement context: 37 °C
quantity measured: self-splicing fitness (ln)
Returns: the value as a bare number; no unit string appended.

What measured self-splicing fitness (ln) goes with "GAUAAGCAAUAUUACGUGAC" ?
-0.818

Moving on to "CAUAAGCAAUAUUACGAUCA"
-1.87

Moving on to "CCAAAGCAAUAUUACGCCAG"
-0.0837

Moving on to "UUACAGCAAUAUUACGGCAA"
-0.272

---
What measured self-splicing fitness (ln) goes with "CUUGAGCAAUAUUACGGGUU" ?
-2.92
